System: DU-145 prostate
Assay: NCI-60 one-dose screen, 48 h
Settings: 10 µM unless noted
The panel holds about 83,000 compounds, 20% with a hit somewhere; the sample as a whole holds those more often. Active and inactive are the calls of the source. The calls were made as follows: active = growth percent below 10; inactive = the rest.
Your response should consist of one outcome taken from active, inactive

Task: For `C/C(=C(/c1ccc(O)cc1)c1ccc(OCCN(C)C)cc1)c1ccccc1` , which call appears in the assay record?
Output: inactive

Task: Try this molecule too: `Cc1cc(N/N=C/c2nc(-c3ccc(Cl)cc3)oc2C)c2cc(Br)ccc2n1`
Output: inactive

Task: How about this molecule: CC(=O)OCC(=O)C1CCC=CC1OC(C)=O (stereo not given)
Output: inactive

Task: Ok, now `CSc1nc2sc3c(c2c(=O)n1-c1ccc(C(C)C)cc1)CCC(=O)C3`
Output: inactive

Task: Item: `O=C1NC(=O)C(CC(=O)n2c(-c3ccccc3)nc3ccccc32)C(=O)N1`
Output: inactive

Task: Try the molecule OCC1C2C=CC(C2)C1CO (stereo not given)
Output: inactive

Task: Now consider COC1/C=C\OC2(C)Oc3c(C)c(O)c4c(O)c(c(CN(C)CCO)c(O)c4c3C2=O)NC(=O)/C(C)=C\C=C/C(C)C(O)C(C)C(O)C(C)C(OC(C)=O)C1C (stereo not given) and answer again.
Output: inactive

Task: # repeat for `C=C1C(=O)O[C@H]2[C@H]1CC/C(Cn1cc(Cn3ccc4cc(Cl)ccc43)nn1)=C\CC[C@@]1(C)O[C@@H]21`
Output: active

Task: // same read-out, input: `O=C1Nc2ccccc2/C1=C/C(=N/c1nnc(-c2ccccc2)s1)c1ccccc1`
Output: inactive

Task: # repeat for `CCOc1ccc(Nc2nc(-c3c(C)nc4ncccn34)cs2)cc1`
Output: active

====

Tested on: SN12C renal
Test: NCI-60 one-dose screen, 48 h (100 = growth as untreated, 0 = no growth, -100 = all killed)
Settings: 10 µM unless noted
The panel holds about 83,000 compounds, 20% with a hit somewhere; the sample as a whole holds those more often.
Parameter class (string): assigned from measured growth. Ranges: group 1: < 20%; group 2: ≥ 20% and < 90%; group 3: ≥ 90%

Task: Exercise: read the entry `COc1cnc2c(c1)C(=O)c1c-2n(CCCN2CCN(C)CC2)c(=O)c2cc([N+](=O)[O-])ccc12` and state which class it falls under.
Output: group 1

Task: Continue with `CC(=O)CC(C)(C)c1ccc(Cl)cc1`
Output: group 3

Task: What do you get for `COc1cccc(-c2nc3sccn3c2-c2ccnc(NCCCNS(=O)(=O)c3ccccc3)c2)c1` ?
Output: group 2

Task: Also need `C[C@@H]1CC[C@@H]2[C@@H]1[C@H](OC(=O)/C=C/c1ccccc1)[C@]1(c3ccccc3)C[C@@H](OC(=O)CO)[C@@]2(C)O1` , thanks.
Output: group 2

Task: Request: `COc1cccc(/C=C2/C(=O)N(Cc3ccco3)SC2=S)c1OC`
Output: group 3

Task: Same read-out for `O=C(CCCN1CCOCC1)Nc1ccc(Cn2nnc3c2C(=O)c2nnn(Cc4ccc(NC(=O)CCCN5CCOCC5)cc4)c2C3=O)cc1` ?
Output: group 1

Task: Entry `COc1ccc(C(=O)c2sc3nc4c(cc3c2N)CCCC4)cc1OC` please
Output: group 2

Task: Another compound: `O=C(CN1CCN(c2cc3c(cc2F)c(=O)c(C(=O)O)cn3C2CC2)CC1)Nc1nc(-c2ccc(Cl)cc2)cs1`
Output: group 1

====

System: HOP-92 NSCLC
Assay: NCI-60 one-dose screen, 48 h (100 = growth as untreated, 0 = no growth, -100 = all killed)
Details: 10 µM unless noted
Compounds without any hit were thinned out: in the full panel of roughly 83,000, 20% have a hit. Active and inactive are the calls of the source. The calls were made as follows: active = growth percent below 10; inactive = the rest.
recorded_metric: growth

Task: Would you kindly share the measured growth for `O=C1c2c[n+](Cc3ccccc3)ccc2-c2nc3ccccc3c3ccnc1c23` ?
Output: -45.4% (active)

Task: And what about the compound `COc1ccccc1N1CCN(CCn2c(=O)c3c(c4ccccc4n3C)n(C)c2=O)CC1` ?
Output: 92.1% (inactive)

Task: Try this compound next: CCOC(=O)C(Cc1cc(I)c(O)c(I)c1)NC(=O)c1ccccc1 (stereo not given)
Output: -14.2% (active)

Task: Again, but for `COc1cc(OC)c(/C=C/c2cc[n+](C)c3ccccc23)c(OC)c1`
Output: -10.8% (active)

Task: Next compound: `CC[C@H](Nc1ncnc(N)c1C(N)=O)c1nc2cccc(NCc3ccc(C(=O)NO)cc3)c2c(=O)n1-c1ccccc1`
Output: 21.5% (inactive)

====

Tested on: OVCAR-5 ovarian
Assay: NCI-60 one-dose screen, 48 h (100 = growth as untreated, 0 = no growth, -100 = all killed)
Conditions: 10 µM unless noted
Procedure: Growth inhibition of the OVCAR-5 human tumor cell line is measured as a screen for anti-cancer activity. Cells are grown in 96 well plates and exposed to the test compound for 48 hours. Compounds are tested at a single concentration, which is 10^-5 M for most compounds. The reported endpoint is percent growth (GI% or GIPRCNT), where numbers from 0 - 100% represent growth inhibition, and numbers from -100% - 0 represent cell death. For example, a value of 40 represents 60% growth inhibition. […]
About 83,000 compounds went through this panel and 20% of them were active in at least one assay; those are over-represented in the sample as a whole.
recorded_metric: growth (%)
Hi! Could you send only the number? It should be in %, unit omitted.

Task: // growth lookup, key: `CC[C@H](Nc1cc(C)nc(N)n1)c1nc2cccc(NCc3ccc(C(=O)NO)cc3)c2c(=O)n1-c1ccccc1`
Output: 32.3

Task: Try the compound CN1CCCCC1CCN1c2ccccc2Sc2ccc(Cl)cc21 (stereo not given)
Output: 91.8

Task: How about `COc1ccc2nc3cc(Cl)ccc3c(N3CCN(c4ccnc(N5CCOCC5)n4)CC3)c2c1` ?
Output: 83.8

Task: How about `CCCCCCCCOC(=O)CC[C@@H](C)[C@H]1CC[C@H]2[C@@H]3[C@H](OC(=O)CCN)C[C@@H]4C[C@H](OC(=O)CCN)CC[C@]4(C)[C@H]3C[C@H](OC(=O)CCN)[C@]12C` ?
Output: 92.1

Task: Could you do the same for `COc1ccccc1N1CCN(CCn2c(=O)c3c(c4ccccc4n3C)n(C)c2=O)CC1` , please?
Output: 111

Task: Try this compound next: `S=c1[nH]nc(CSc2ncnc3c2c(-c2ccccc2)cn3-c2ccc(Cl)cc2)o1`
Output: 104

Task: Could you do the same for `C[C@@H]1CCC2=C(CCC[C@]2(C)C(=O)O)[C@@]1(C)CCc1ccoc1` , please?
Output: 112

Task: Same again, this time with COc1ccc(CN(c2ccc(C)cc2)C2OC(=O)c3ccccc32)cc1OC (stereo not given)
Output: 89.7

Task: Now the same for `CCOC(=O)C(=Cc1ccccc1F)C(=O)OCC`
Output: 106

Task: Also check `Cc1ccc2c(c1)O/C(=C\c1cccc(OCC(=O)c3ccccc3)c1)C2=O`
Output: 109

Task: Param item: `Cc1cc(N/N=C/c2nc(-c3ccc(Cl)cc3)oc2C)c2cc(Br)ccc2n1`
Output: 96.1

Task: Follow-up entry: `O=C1c2cc3c(cc2-c2c1c1cc(F)c(F)cc1c(=O)n2C[C@H](O)CO)OCO3`
Output: 4.09

Task: What about CCOC(=O)C(Cc1cc(I)c(O)c(I)c1)NC(=O)c1ccccc1 (stereo not given) ?
Output: 96.1

Task: Then `CCN(CC)Cc1cc(Nc2c3ccc(Cl)cc3nc3c(C)cccc23)ccc1O` ?
Output: -37.7

Task: // query: `CCC(=O)OCc1cccc(OC)c1`
Output: 118

Task: Repeat for the following compound: `Cc1ccc(N)cc1F`
Output: 109

Task: Would you kindly repeat that for `NS(=O)(=O)c1ccc(-n2ncc3c(=O)[nH]c(CN4CCN(c5cc6c(cc5F)c(=O)c(C(=O)O)cn6C5CC5)CC4)nc32)cc1` ?
Output: 97.6

Task: Please do the same for `Cc1[nH]n(-c2ccccc2)c2nc3nncc3c(-c3ccc(Cl)cc3)c12` as well.
Output: 99.1

Task: Same lookup for `c1c2c(cc3c1OCO3)Cc1cc3c(cc1Cc1cc4c(cc1C2)OCO4)OCO3` , please.
Output: 102

Task: Queued: `CC[n+]1ccc2c(c1)C(=O)c1nccc3c1c-2nc1ccccc13`
Output: 87.7

====

Test system: MOLT-4 leukemia
Assay: NCI-60 one-dose screen, 48 h (100 = growth as untreated, 0 = no growth, -100 = all killed)
Conditions: 10 µM unless noted
Compounds without any hit were thinned out: in the full panel of roughly 83,000, 20% have a hit. Calls of active or inactive are those of the source. Rule for the calls: active = growth percent below 10; inactive = the rest.
recorded_metric: growth

Task: Fill in: growth of `CC/C(Cc1ccccc1)=C(/c1ccc(O)cc1)c1ccc(OCCN2CCCC2)cc1` is ___
Output: -22.7% (active)

Task: Quick one: `CCOC(=O)/C=C/c1ccc(C(=O)OCC)[nH]1`
Output: 75.8% (inactive)

Task: Now consider Nc1nc2c(c3ncccc13)C(c1ccc(Cl)c(Cl)c1)Cc1ncccc1-2 (centres undefined) and answer again.
Output: 5.36% (active)

Task: Repeat for the following compound: OC(c1cccc(C(F)(F)F)c1)c1cnccc1NC1CCCCCC1 (centres undefined)
Output: 22.6% (inactive)

Task: `Nc1c(C(=O)Nc2ccccc2Cl)sc2nc3c(cc12)CCCCCC3` ?
Output: 39.8% (inactive)

Task: Note, next up: `O=C(O)c1cccnc1Br`
Output: 103% (inactive)

Task: Now this one: `COc1ccc2nc(NC(=O)c3cccnc3Nc3cc(OC)c(OC)c(OC)c3)sc2c1`
Output: 56.7% (inactive)

Task: Request: `COc1cc(-c2c3c(nc4c2c(C)nn4-c2ccccc2)-c2ccccc2C(=O)C3=O)cc(OC)c1OC`
Output: 52.5% (inactive)

Task: How about `CCCCCC(=O)Oc1ccc(/C(=C(\C)c2ccccc2)c2ccc(OCCN(CC)CC)cc2)cc1` ?
Output: 46.1% (inactive)
